system.name: Autoinducer 2-binding periplasmic protein LuxP (Vibrio harveyi, UniProt P54300)
Sequence (P54300 whole entry): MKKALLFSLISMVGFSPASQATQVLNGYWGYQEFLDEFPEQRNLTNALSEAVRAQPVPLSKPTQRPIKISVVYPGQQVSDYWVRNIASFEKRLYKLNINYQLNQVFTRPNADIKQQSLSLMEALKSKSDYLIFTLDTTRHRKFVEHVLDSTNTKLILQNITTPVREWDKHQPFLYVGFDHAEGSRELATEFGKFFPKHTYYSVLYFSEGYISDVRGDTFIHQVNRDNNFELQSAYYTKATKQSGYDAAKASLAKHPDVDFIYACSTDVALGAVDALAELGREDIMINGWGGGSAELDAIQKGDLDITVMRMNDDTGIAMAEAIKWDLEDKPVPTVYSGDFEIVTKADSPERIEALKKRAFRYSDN
assay.method.text: Antagonist activity at Vibrio harveyi MM32 LuxP receptor assessed as decrease in receptor agonist DPD-induced bioluminescence after 5 hrs 30 mins
pIC50: −log10 of the molar value.
measured.parameter: pIC50

1: CC(=O)C(=O)[C@@H](O)[C@H](C)O
2: CC(=O)C(=O)[C@H](O)[C@@H](C)O
Problem: Which is greater in pIC50, the first item 1 or the second item 2 ? Label of pick, please.
Solution: 1

* * *

system.name: Autoinducer 2-binding periplasmic protein LuxP (Vibrio harveyi)
assay.method.text: Binding affinity to Vibrio harveyi CFP/YFP-tagged LuxP receptor assessed as decrease in FRET ratio
measured.parameter: EC50 (µM)

molecule	system.name	measured.parameter	recorded.number
CC(=O)C(=O)[C@@H](O)[C@@H](C)O (single isomer, unassigned)	Autoinducer 2-binding periplasmic protein LuxP (Vibrio harveyi)	EC50	0.14

A: CC(=O)C(=O)[C@H](O)[C@H](C)O
B: CC(=O)C(=O)[C@@H](O)CO
Problem: Which is greater in EC50, the first item A or the second item B ? Label of pick, please.
Solution: A
(A: 10 µM, B: 0.032 µM)

1: CC(=O)C(=O)[C@H](O)[C@@H](C)O
2: CC(=O)C(=O)[C@@H](O)[C@H](C)O
Problem: Quick one: lower EC50, 1 or 2 ? Label of pick, please.
Solution: 2

* * *

system.name: Autoinducer 2-binding periplasmic protein LuxP (Vibrio harveyi, UniProt P54300)
assay.method.text: Agonist activity at Vibrio harveyi MM32 LuxP receptor assessed as induction of bioluminescence after 5 hrs 30 mins
Type: functional
measured.parameter: EC50 (µM)

molecule	measured.parameter	recorded.number
CC(=O)C(=O)[C@H](O)[C@H](C)O	EC50	26.5

P: CC(=O)C(=O)[C@@H](O)CO
Q: CC(=O)C(=O)[C@@H](O)[C@H](C)O
R: CC(=O)C(=O)[C@H](O)[C@@H](C)O
S: CC(=O)C(=O)[C@@H](O)[C@@H](C)O (single isomer, unassigned)
Problem: Sequence the entries by EC50, beginning with the highest number. Answer by naming the labels in the order asked.
Solution: R, Q, S, P
(R: 19.5 µM, Q: 6.21 µM, S: 0.65 µM, P: 0.076 µM)

Numbers sourced from ChEMBL document CHEMBL1938309.
